meta.source: paper PMC10447267

Target: CYP1A2 (Homo sapiens, UniProt P05177)
Construct: pooled mixed-gender human liver microsomes; from tissue; host or cells: pooled mixed-gender human liver microsomes
Sequence (P05177 whole entry): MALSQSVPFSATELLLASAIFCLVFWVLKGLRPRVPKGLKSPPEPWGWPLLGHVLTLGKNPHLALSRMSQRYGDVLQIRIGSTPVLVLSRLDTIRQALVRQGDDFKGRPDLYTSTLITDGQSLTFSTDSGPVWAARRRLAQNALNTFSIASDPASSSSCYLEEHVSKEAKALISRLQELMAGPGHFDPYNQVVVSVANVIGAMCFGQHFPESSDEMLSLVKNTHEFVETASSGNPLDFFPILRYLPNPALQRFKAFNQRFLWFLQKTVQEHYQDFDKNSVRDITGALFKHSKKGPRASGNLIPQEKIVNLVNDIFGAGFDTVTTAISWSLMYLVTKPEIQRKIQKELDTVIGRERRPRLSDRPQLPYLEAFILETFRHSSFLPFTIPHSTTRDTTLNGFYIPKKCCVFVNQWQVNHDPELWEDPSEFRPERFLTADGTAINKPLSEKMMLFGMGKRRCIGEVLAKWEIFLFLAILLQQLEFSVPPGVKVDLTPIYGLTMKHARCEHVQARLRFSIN
Test: CYP1A2 inhibition in pooled human liver microsomes
Format: in vitro ADME
Settings: both sexes, human, microsomes, Phenacetin O-dealkylation; 30-min preincubation; 49.5 µM; read-out: Time-dependent inhibition, maximum inhibition at 49.5 µM
reported_endpoint: inhibition at 49.5 µM (%)
One number for each entry, in %.

Challenge: If you can, please state the reported inhibition at 49.5 µM value of `CN1CCC(COc2cnc(-c3cccc(Cn4nc(-c5cccc(C#N)c5)ccc4=O)c3)nc2)CC1` .
Response given: 26

---

Target: CYP2C19 (Homo sapiens, UniProt P33261)
Construct: pooled mixed-gender human liver microsomes; from tissue; host or cells: pooled mixed-gender human liver microsomes
Sequence (P33261 whole entry): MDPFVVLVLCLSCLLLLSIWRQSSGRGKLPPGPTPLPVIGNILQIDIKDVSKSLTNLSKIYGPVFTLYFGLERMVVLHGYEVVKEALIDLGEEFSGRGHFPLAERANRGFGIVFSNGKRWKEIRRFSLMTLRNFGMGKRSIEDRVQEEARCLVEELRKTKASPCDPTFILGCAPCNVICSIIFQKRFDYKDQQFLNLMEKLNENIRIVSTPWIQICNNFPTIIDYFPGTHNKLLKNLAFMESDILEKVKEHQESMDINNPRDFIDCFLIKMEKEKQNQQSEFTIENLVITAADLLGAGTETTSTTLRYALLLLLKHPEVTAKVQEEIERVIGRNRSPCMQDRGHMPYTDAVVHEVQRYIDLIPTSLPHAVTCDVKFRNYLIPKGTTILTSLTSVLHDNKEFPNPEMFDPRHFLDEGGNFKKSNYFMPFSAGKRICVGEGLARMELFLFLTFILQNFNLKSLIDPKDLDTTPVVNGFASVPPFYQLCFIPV
Assay: CYP2C19 inhibition in pooled human liver microsomes
Type: in vitro ADME
Conditions: both sexes, human, pooled human liver microsomes, probe S-mephenytoin (4-hydroxylation), S-Mephenytoin 4-hydroxylation; 30-min preincubation; 49.5 µM; read-out: Time-dependent inhibition, maximum inhibition at 49.5 µM
reported_endpoint: inhibition at 49.5 µM
Please append the unit to your numeric answer.

Challenge: Form field: reported inhibition at 49.5 µM of `CN1CCC(COc2cnc(-c3cccc(Cn4nc(-c5cccc(C#N)c5)ccc4=O)c3)nc2)CC1`
Response given: 65%
